SYSTEM TESTED: delta receptors, rat brain membranes (Rattus norvegicus)
Construct: from tissue; host or cells: rat brain homogenate
Sequence (P33533 whole entry): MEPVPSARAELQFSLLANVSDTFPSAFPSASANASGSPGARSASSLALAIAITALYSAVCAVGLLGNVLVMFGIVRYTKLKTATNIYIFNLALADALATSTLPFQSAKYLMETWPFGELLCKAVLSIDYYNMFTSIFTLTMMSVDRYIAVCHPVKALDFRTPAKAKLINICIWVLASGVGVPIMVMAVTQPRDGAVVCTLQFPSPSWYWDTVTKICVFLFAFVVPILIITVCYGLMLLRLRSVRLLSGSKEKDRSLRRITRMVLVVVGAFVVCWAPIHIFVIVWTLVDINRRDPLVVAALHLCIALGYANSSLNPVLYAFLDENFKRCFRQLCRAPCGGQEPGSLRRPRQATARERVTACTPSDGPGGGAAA
EXPERIMENTAL DETAILS: GTP[γ]35S binding functional assay, homogenised rat brain
Format: biochemical
TEST PARAMETERS: rat brain homogenate, read-out: RAT BRAIN % E Max
RECORDED ENDPOINT: Emax (%)
API: value field is a number in %; no unit string.

>  <SMILES NOTATION>
CCN(CC)C(=O)c1ccc(C(=C2CCN(Cc3ccccn3)CC2)c2cccc(O)c2)cc1

>  <VALUE UNIT>
%

>  <Emax>
135

$$$$
>  <SMILES NOTATION>
CCN(CC)C(=O)c1ccc(C(=C2CCN(Cc3ccccc3)CC2)c2cccc(O)c2)cc1

>  <VALUE UNIT>
%

>  <Emax>
112

$$$$
>  <SMILES NOTATION>
CCN(CC)C(=O)c1ccc(C(=C2CCN(Cc3ncc[nH]3)CC2)c2cccc(O)c2)cc1

>  <VALUE UNIT>
%

>  <Emax>
151

$$$$
>  <SMILES NOTATION>
CCN(CC)C(=O)c1ccc(C(=C2CCN(Cc3cccs3)CC2)c2cccc(O)c2)cc1

>  <VALUE UNIT>
%

>  <Emax>
168

$$$$
>  <SMILES NOTATION>
CCN(CC)C(=O)c1ccc(C(=C2CCN(Cc3ccco3)CC2)c2cccc(O)c2)cc1

>  <VALUE UNIT>
%

>  <Emax>
132

$$$$
>  <SMILES NOTATION>
CCN(CC)C(=O)c1ccc(C(=C2CCN(Cc3nccs3)CC2)c2cccc(O)c2)cc1

>  <VALUE UNIT>
%

>  <Emax>
120

$$$$
>  <SMILES NOTATION>
CCN(CC)C(=O)c1ccc(C(=C2CCN(Cc3c[nH]cn3)CC2)c2cccc(O)c2)cc1

>  <VALUE UNIT>
%

>  <Emax>
102

$$$$

# input for lookup
// returns reported Emax for input `CCN(CC)C(=O)c1ccc(C(=C2CCN(Cc3ccncc3)CC2)c2cccc(O)c2)cc1`
81.4
